In this section, each of the compounds is paired with its reported EC50.
# Measured Target: FSHR (Homo sapiens, UniProt P23945)
# Construct: expressed in transfected cells; host or cells: CHO (Cho-FSHR-LUC-1-1-43)
# Sequence (P23945 18-695): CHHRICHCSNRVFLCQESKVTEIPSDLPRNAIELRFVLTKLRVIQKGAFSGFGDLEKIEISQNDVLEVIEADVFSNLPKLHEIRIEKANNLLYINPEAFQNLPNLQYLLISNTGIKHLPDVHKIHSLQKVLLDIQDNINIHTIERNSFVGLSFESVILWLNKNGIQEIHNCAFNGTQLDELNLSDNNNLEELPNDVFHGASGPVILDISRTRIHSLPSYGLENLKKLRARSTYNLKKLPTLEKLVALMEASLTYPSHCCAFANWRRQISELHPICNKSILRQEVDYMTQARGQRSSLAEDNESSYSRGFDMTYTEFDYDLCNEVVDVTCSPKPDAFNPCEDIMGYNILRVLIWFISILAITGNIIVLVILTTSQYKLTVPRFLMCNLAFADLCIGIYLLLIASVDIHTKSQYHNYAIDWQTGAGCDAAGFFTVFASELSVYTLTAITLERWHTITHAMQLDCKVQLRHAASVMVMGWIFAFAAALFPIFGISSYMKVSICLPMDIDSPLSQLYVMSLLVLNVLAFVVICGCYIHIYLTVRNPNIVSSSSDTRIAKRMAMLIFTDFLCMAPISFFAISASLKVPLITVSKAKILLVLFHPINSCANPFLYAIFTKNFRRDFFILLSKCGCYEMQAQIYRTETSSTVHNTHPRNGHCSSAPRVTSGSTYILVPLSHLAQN
# Experiment Notes: EC50 of cyclic AMP production in CHO FSHR cells + EC20 FSH (Assay A)
# Type: cell-based
# Measurement Parameters: cyclic AMP production in CHO FSHR cells + EC20 FSH (0.265 pM), HTRF

Compound	Measured Target	EC50
COc1cc2c(cc1[C@H]1C[C@@H]1C(=O)O)-c1c(c(C(=O)N(C)C(C)(C)C)nn1-c1cc(F)cc(F)c1)CO2 (racemic) [Compound 205]	FSHR (Homo sapiens, UniProt P23945)	10 to 100 nM
COc1cc2c(cc1-c1cnn(CC(=O)O)c1)-c1c(c(C(=O)N3CCOCC3(C)C)nn1-c1cc(F)cc(Cl)c1)CO2 [Compound 84]	FSHR (Homo sapiens, UniProt P23945)	10 to 100 nM

What value of measured EC50 is listed for COc1cc2c(cc1-c1cncc(CO)c1)-c1c(c(C(=O)N3CCOCC3(C)C)nn1-c1cc(Cl)cc(Cl)c1)CO2 [Compound 24] ?
< 10 nM

What value of measured EC50 is listed for COc1cc2c(cc1-c1ccn(C)n1)-c1c(c(C(=O)N3CCOCC3(C)C)nn1-c1cc(Cl)cc(Cl)c1)CO2 [Compound 9] ?
< 10 nM

What value of measured EC50 is listed for COc1cc2c(cc1-c1cncc(C(N)=O)c1)-c1c(c(C(=O)N(C)C(C)(C)C)nn1-c1ccccn1)CO2 [Compound 168] ?
< 10 nM

What value of measured EC50 is listed for COc1cc2c(cc1-c1cnn(CC(=O)N(C)C)c1)-c1c(c(C(=O)N3CCOCC3(C)C)nn1-c1cc(Cl)cc(Cl)c1)CO2 [Compound 92] ?
< 10 nM

* * *

# Measured Target: FSHR (Homo sapiens, UniProt P23945)
# Sequence (P23945 18-695): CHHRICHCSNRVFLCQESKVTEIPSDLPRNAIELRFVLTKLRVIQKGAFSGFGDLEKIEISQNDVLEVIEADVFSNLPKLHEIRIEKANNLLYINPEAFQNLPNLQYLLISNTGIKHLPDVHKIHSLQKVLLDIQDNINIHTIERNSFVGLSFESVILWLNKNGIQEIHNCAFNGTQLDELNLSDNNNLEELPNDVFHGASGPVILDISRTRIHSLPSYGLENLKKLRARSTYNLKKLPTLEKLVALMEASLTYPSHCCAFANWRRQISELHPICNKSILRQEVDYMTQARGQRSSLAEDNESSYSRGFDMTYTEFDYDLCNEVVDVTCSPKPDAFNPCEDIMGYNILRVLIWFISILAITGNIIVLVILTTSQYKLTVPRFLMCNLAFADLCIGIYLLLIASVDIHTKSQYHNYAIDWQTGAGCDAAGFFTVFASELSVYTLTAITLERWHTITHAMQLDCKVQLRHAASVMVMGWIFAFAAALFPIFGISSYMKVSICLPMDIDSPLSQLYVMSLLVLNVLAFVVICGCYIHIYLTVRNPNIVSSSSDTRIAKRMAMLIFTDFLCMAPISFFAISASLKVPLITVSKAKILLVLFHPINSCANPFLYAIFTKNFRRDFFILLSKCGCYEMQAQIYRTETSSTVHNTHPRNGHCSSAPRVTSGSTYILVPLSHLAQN
# Experiment Notes: EC50 of cyclic AMP production in CHO FSHR cells + EC20 FSH (Assay A)
# Measurement Parameters: cyclic AMP production in CHO FSHR cells + EC20 FSH (0.265 pM), HTRF
In this section, each of the molecules is paired with its reported EC50.

Below, each entry is followed by its recorded EC50 result.
Molecule	Measured Target	EC50
COc1cc2c(cc1-c1ccn(C)n1)-c1c(c(C(=O)N(C)C(C)(C)C)nn1-c1cc(Cl)cc(Cl)c1)CO2 [Compound 4]	FSHR (Homo sapiens, UniProt P23945)	10 to 100 nM
COc1cc2c(cc1-c1cc(C(N)=O)ncc1F)-c1c(c(C(=O)N3CCOCC3(C)C)nn1-c1cc(F)cc(F)c1)CO2 [Compound 72]	FSHR (Homo sapiens, UniProt P23945)	< 10 nM
COc1cc(OC)cc(-n2nc(C(=O)N3CC[S+]([O-])CC3(C)C)c3c2-c2cc(-c4cccnc4F)c(OC)cc2OC3)c1 (stereo not drawn) [Compound 40]	FSHR (Homo sapiens, UniProt P23945)	< 10 nM
COc1cc2c(cc1-c1cc(F)cc(C(=O)O)c1)-c1c(c(C(=O)N(C)C(C)(C)C)nn1-c1cc(Cl)cc(Cl)c1)CO2 [Compound 83]	FSHR (Homo sapiens, UniProt P23945)	< 10 nM

What value of measured EC50 is listed for COC(=O)Cn1nc(C)c(-c2cc3c(cc2OC)OCc2c(C(=O)N(C)C(C)(C)C)nn(-c4cc(Cl)cc(Cl)c4)c2-3)c1C [Compound 138] ?
< 10 nM

What value of measured EC50 is listed for COc1cc2c(cc1-c1cc(C(N)=O)ccc1F)-c1c(c(C(=O)N(C)C(C)(C)C)nn1-c1cc(Cl)cc(Cl)c1)CO2 [Compound 93] ?
< 10 nM

* * *

# Measured Target: follicle-stimulating hormone (FSH) receptor (Rattus norvegicus, UniProt P20395)
# Construct: endogenous in cells
# Sequence (P20395 18-692): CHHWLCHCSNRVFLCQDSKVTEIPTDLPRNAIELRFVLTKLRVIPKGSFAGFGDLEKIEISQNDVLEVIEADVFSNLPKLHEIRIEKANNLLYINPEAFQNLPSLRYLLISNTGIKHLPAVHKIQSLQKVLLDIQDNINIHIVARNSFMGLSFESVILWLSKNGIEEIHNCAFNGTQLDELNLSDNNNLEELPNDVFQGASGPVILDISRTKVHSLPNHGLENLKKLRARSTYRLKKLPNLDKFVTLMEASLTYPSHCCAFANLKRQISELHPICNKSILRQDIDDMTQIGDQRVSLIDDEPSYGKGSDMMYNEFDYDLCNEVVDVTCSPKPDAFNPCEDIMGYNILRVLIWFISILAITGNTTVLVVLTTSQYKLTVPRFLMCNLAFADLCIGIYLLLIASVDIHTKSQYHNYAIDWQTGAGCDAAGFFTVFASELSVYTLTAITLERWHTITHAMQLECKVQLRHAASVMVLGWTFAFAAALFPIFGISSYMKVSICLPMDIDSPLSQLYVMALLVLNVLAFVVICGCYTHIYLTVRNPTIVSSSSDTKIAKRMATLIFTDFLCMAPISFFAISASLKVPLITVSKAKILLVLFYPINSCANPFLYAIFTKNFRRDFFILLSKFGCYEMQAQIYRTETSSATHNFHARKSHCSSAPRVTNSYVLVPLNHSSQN
# Experiment Notes: Rat granulosa EC50 FSH (Assay B)
In this section, each of the compounds is paired with its reported EC50.

COc1cc2c(cc1-c1cnc(C)c(C(N)=O)c1)-c1c(c(C(=O)N(C)C(C)(C)C)nn1-c1cc(Cl)cc(Cl)c1)CO2 101 to 500 nM

Give recorded EC50 with follicle-stimulating hormone (FSH) receptor (Rattus norvegicus, UniProt P20395) for the following compound: COc1cc2c(cc1-c1ccn(C)n1)-c1c(c(C(=O)N(CCO)C(C)(C)C)nn1-c1cc(Cl)cc(Cl)c1)CO2
101 to 500 nM

Give recorded EC50 with follicle-stimulating hormone (FSH) receptor (Rattus norvegicus, UniProt P20395) for the following compound: COc1cc2c(cc1-c1cncc(C(N)=O)c1C)-c1c(c(C(=O)N(C)C(C)(C)C#N)nn1-c1cc(Cl)cc(Cl)c1)CO2
10 to 100 nM

Where do the numbers come from? From patent US10941152B2.
